target: T1, PCSK9-BP15-His6 (human, UniProt Q8NBP7 31-692, biotin on the BP15 biotin receiving peptide); assay: blocking ELISA, LDLR-FC (SEQ ID NO: 8) coated, bio-WT-PCSK9 plus antibody
T1 construct: It holds a signal peptide (underlined in print); also called WT PCSK9; bio-WT-PCSK9
In plain terms, low IC50, meaning strictly below 0.8 µg/mL, gives T, and everything else gives F.

{"binder": "h001-2 (antibody, human IgG1, V domains shown, Variable regions only; also called h001_VH.1 + h001_VL.1A) VH: QVQLVQSGAEVKKPGASVKVSCKASGYTFTDYWMHWVRQAPGQGLEWMGYINPSSGFTKYHQNFKDRVTMTRDTSISTAYMELSRLRSDDTAVYYCARQYDYDEDWYFDVWGQGTTVTVSS VL: DIQMTQSPSSLSASVGDRVTITCKSSQSLLNSRTRKNFLAWYQQKPGKAPKLLIYWASTRESGVPDRFSGSGSGTDFTLTISSLQPEDFATYYCKQSFNLFTFGQGTKLEIK", "discreteLabel": "T"}
{"binder": "h001-5 (antibody, human IgG1, V domains shown, Variable regions only; also called h001_VH.1A + h001_VL.1) VH: QVQLVQSGAEVKKPGASVKVSCKASGYTFNDYWMHWVRQAPGQGLEWMGYINPSSGFTKYHQNFKDRVTMTRDTSISTAYMELSRLRSDDTAVYYCARQYDYDEDWYFDVWGQGTTVTVSS VL: DIQMTQSPSSLSASVGDRVTITCKSSQSLLNSRTRKNFLAWYQQKPGKAPKLLIYWASTRESGVPSRFSGSGSGTDFTLTISSLQPEDFATYYCKQSFNLFTFGQGTKLEIK", "discreteLabel": "F"}
{"binder": "h001-1 (antibody, human IgG1, V domains shown, Variable regions only; also called h001_VH.1 + h001_VL.1) VH: QVQLVQSGAEVKKPGASVKVSCKASGYTFTDYWMHWVRQAPGQGLEWMGYINPSSGFTKYHQNFKDRVTMTRDTSISTAYMELSRLRSDDTAVYYCARQYDYDEDWYFDVWGQGTTVTVSS VL: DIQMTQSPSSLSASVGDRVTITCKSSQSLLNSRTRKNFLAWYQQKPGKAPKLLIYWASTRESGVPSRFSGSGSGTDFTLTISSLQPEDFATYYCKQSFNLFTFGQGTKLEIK", "discreteLabel": "T"}
{"binder": "h001-8 (antibody, human IgG1, V domains shown, Variable regions only; also called h001_VH.1A + h001_VL.1C) VH: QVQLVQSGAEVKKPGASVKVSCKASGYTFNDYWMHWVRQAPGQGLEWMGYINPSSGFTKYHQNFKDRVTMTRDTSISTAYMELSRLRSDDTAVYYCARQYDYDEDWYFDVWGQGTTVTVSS VL: DIVMSQSPSSLSASVGDRVTITCKSSQSLLNSRTRKNFLAWYQQKPGKSPKLLIYWASTRESGVPDRFSGSGSGTDFTLTISSLQPEDFATYYCKQSFNLFTFGQGTKLEIK", "discreteLabel": "T"}
{"binder": "h001-9 (antibody, human IgG1, V domains shown, Variable regions only; also called h001_VH.1B + h001_VL.1) VH: QVQLVQSGAEVKKPGASVKVSCKASGYTFTDYWMHWVRQAPGQGLEWMGYINPSSGFTKYHQNFKDRVTMTRDTSISTAYMELSRLTSDDTAVYYCARQYDYDEDWYFDVWGQGTTVTVSS VL: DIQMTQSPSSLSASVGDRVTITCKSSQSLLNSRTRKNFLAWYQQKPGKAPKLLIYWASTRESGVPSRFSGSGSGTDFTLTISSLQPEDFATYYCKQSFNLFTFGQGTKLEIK", "discreteLabel": "F"}
